- system: Hyper-IL-6 (sIL-6R/IL-6 fusion) (UniProt P08887 20-323+P05231:30-212, internal_change)
- experimental-details: filter binding
parameter-measured: Kd (nM)
Field: numeric (nM). Do not append units.

binder | Kd (nM)
GGGTGGGTGGGTGGG (structured_DNA) [AID-1-T] | 127
GGGUGGGUGGGUGGG (structured_RNA) [rAID-1-U] | 199
GGGGAGGCUGUGGUGAGGG (structured_RNA) [AIR-3A] | 82

We next turn to a different binder, shown below.
Inquiry: // lookup Kd for GGGTGGGTGGGTGGGA (structured_DNA) [AID-1-T16A]
Reply text: 693
